tested on: TGFBR1; conditions: concentration: 1 μM,replicates: in singlicate; n = 1;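 also: KINOMEscan kinase panel screen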
Response field label: string, one of met (%Inh strictly below 8%) or not met.

stdin: State whether 8% exceeds %Inh recorded for CC(C)c1nc(-c2cccc(NS(=O)(=O)c3ccccc3)c2)c(-c2ccnc(Nc3ccc4c(c3)CN(C)CC4)n2)s1 [GSK1649598] .
stdout: not met

stdin: Does the reported %Inh of the following molecule sit strictly below 8%? CCn1c(-c2nonc2N)nc2cncc(Br)c21 [SB-738004]
stdout: met

stdin: Bench note: check whether CCOC(=O)N1CCC(n2cnc(-c3ccc(F)cc3)c2-c2ccnc(N)n2)CC1 [SB-219952] shows %Inh below 8%
stdout: not met

stdin: Strictly below 8%: is that where %Inh of "Cn1ccc2ncnc(Oc3ccc(NC(=O)Nc4cccc(C(F)(F)F)c4)c(Cl)c3)c21" sits?
stdout: not met

***
stdin: Report whether reported %Inh is lower than 8% (strictly) for "O=C(Nc1ccc(Oc2ccc3nc(NC(=O)C4CC4)cn3n2)c(F)c1)c1cccn(-c2ccccc2)c1=O"
stdout: not met

stdin: Hello, is %Inh of the following molecule strictly smaller than 8%? CC(C)S(=O)(=O)N1CCN(Cc2ccc3c(c2)nc(NC(=O)c2ccsc2)n3C[C@H](O)c2ccccc2)CC1 [GW635815]
stdout: met

stdin: Record "Cn1ccc2ncnc(Oc3ccc(NC(=O)Nc4cnn(C(C)(C)C)c4)c(Cl)c3)c21" : is its %Inh strictly below 8%?
stdout: not met
